System: Vero E6 infected with SARS-CoV-2
TEST_SUMMARY: morphology score (similarity to uninfected cells); higher = more like uninfected cells
CONDITIONS_USED: 24 h
Range-based classes on measured morphology score: lo (below -0.0004), med (-0.0004 to below 0.06), hi (0.06 or more)

# MOLECULE, GROUP_LABEL
measured = [
    ("FC(F)(F)c1ccccc1-c1cc(C(F)(F)F)c2[nH]c(C3=NOC4(CCCCC4)C3)nc2c1 (10 µM)", "lo"),
    ("COc1ccc(CCc2nc3cc(-c4c(C)noc4C)ccc3n2C[C@H](C)N2CCOCC2)cc1Cl (0.833333 µM)", "lo"),
    ("CC(O)(CS(=O)(=O)c1ccc(F)cc1)C(=O)Nc1ccc(C#N)c(C(F)(F)F)c1 (stereo unspecified) [bicalutamide] (10 µM)", "lo"),
]

Inquiry: Band for O=C(C=Cc1ccccc1)NC(NC(=S)Nc1ccc(Cl)cc1)C(Cl)(Cl)Cl (stereo unspecified) (10 µM) ?
Reply text: lo

Inquiry: Band for C[C@@H]1CN(CCCn2c3ccccc3c3ccccc32)C[C@H](C)N1 [rimcazole] (10 µM) ?
Reply text: hi

Inquiry: Band for O=C(NCCCNc1nc(Nc2cccc(NC(=O)N3CCCC3)c2)ncc1I)c1cccs1 (0.833333 µM) ?
Reply text: hi
